- study system: σ2 receptor (Rattus norvegicus, UniProt Q5U3Y7)
- Construct: using rat liver membrane homogenates (˜300 μg protein); from tissue; host or cells: rat liver membrane homogenate
- Sequence (Q5U3Y7 1-176): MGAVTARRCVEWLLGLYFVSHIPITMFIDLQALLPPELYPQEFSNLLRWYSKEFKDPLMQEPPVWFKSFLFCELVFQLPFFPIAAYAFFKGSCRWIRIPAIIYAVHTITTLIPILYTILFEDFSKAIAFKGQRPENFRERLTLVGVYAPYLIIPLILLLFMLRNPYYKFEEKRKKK
- procedure details: σ2 receptor binding assay, [3H]DTG competition in the presence of (+)-pentazocine
- experimental setup: ratio of Ki σ1 to Ki σ2
What Ratio (σ1/σ2) was measured for each of the following?
One number for each entry.

- compound: "COc1cc2c(cc1OC)CN(CCCCNC(=O)c1cc(I)ccc1OCCOCCOCCF)CC2 [6f]"
  Ratio (σ1/σ2): 171

// each compound listed below needs its Ratio (σ1/σ2)
1. COc1cc2c(cc1OC)CN(CCCCNC(=O)c1cc(C)ccc1OCCOCCOCCF)CC2 [6b]
2. COc1cc2c(cc1OC)CN(CCCCNC(=O)c1cc(Br)cc(OC)c1OCCOCCF)CC2 [6g]
3. COc1cc2c(cc1OC)CN(CCCCNC(=O)c1cc(Br)cc(OC)c1OCCOCCOCCF)CC2 [6h]
4. COc1cc2c(cc1OC)CN(CCCCNC(=O)c1cc(C)ccc1OCCOCCF)CC2 [6a]

Result ::
190
143
276
41

====

These molecules were tested on σ1 receptor (Cavia porcellus, UniProt Q60492); Ki is the recorded read-out.
Sequence (Q60492 whole entry): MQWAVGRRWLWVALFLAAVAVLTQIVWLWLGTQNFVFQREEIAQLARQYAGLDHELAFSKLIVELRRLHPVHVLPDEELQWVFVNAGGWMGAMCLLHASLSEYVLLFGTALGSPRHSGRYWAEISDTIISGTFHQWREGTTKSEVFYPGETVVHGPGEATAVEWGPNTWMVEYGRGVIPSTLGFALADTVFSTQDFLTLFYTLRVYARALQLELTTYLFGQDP
Give bare numbers, in nM.

// each molecule listed below needs its Ki
1. COc1cc2c(cc1OC)CN(CCCCNC(=O)c1cc(I)ccc1OCCOCCOCCF)CC2
2. COc1cc2c(cc1OC)CN(CCCCNC(=O)c1cc(C)ccc1OCCOCCF)CC2
3. COc1cc2c(cc1OC)CN(CCCCNC(=O)c1cc(Br)cc(OC)c1OCCOCCOCCF)CC2
4. COc1cc2c(cc1OC)CN(CCCCNC(=O)c1cc(C)ccc1OCCOCCOCCF)CC2

Result ::
1. 1280
2. 277
3. 9100
4. 1920

====

- study system: σ2 receptor (Rattus norvegicus)
- Construct: using rat liver membrane homogenates (˜300 μg protein); from tissue; host or cells: rat liver membrane homogenate
- procedure details: σ2 receptor binding assay, [3H]DTG competition in the presence of (+)-pentazocine
- experimental setup: ratio of Ki σ1 to Ki σ2
result type: Ratio (σ1/σ2)
Give bare numbers.

Below are worked cases with known answers.
- compound: "COc1cc2c(cc1OC)CN(CCCCNC(=O)c1cc(Br)ccc1OCCOCCF)CC2 [6c]"
  study system: "σ2 receptor (Rattus norvegicus)"
  quantitative result: 755
- compound: "COc1cc2c(cc1OC)CN(CCCCNC(=O)c1cc(I)ccc1OCCOCCF)CC2 [6e]"
  study system: "σ2 receptor (Rattus norvegicus)"
  quantitative result: 72

Attention now shifts to the item below.
Query :: Please list Ratio (σ1/σ2) recorded for the compound COc1cc2c(cc1OC)CN(CCCCNC(=O)c1cc(Br)ccc1OCCOCCOCCF)CC2 [6d]
Result :: 103

====

- study system: σ2 receptor (Rattus norvegicus)
- Construct: using rat liver membrane homogenates (˜300 μg protein); from tissue; host or cells: rat liver membrane homogenate
- procedure details: σ2 receptor binding assay, [3H]DTG competition in the presence of (+)-pentazocine
- experimental setup: rat liver membrane homogenates, ~5 nM [3H]DTG with 1 μM (+)-pentazocine; mean ± SEM; read-out: σ2 binding affinity (Ki)
result type: Ki (nM)
One number for each entry, in nM.

Query :: Please list Ki recorded for the compound COc1cc2c(cc1OC)CN(CCCCNC(=O)c1cc(C)ccc1OCCOCCF)CC2
Result :: 6.75
